Values from ChEMBL document CHEMBL4414614

Assay: Inhibition of neuronal excitability in C57BL/6 mouse Neocortical neurons assessed as effect on spontaneous calcium oscillation frequency measured for 10 mins by Fluo-4 staining based FLIPR assay
Format: functional
Details: C57BL/6, 10 min
pIC50: −log10 of the molar value.
Item-by-item account of pIC50

test-smiles | pIC50
CO[C@H]1O[C@@H]([C@@H]2c3cc4c(cc3CCN2C)OCO4)c2ccc3c(c21)OCO3 | 5.17
COc1cc2c(cc1OC)[C@@H]([C@@H]1O[C@H](O)c3c1ccc1c3OCO1)N(C)CC2 | 4.94
CCO[C@@H]1O[C@@H]([C@@H]2c3cc4c(cc3CCN2C)OCO4)c2ccc3c(c21)OCO3 | 5.51
CCO[C@H]1O[C@@H]([C@@H]2c3cc4c(cc3CCN2C)OCO4)c2ccc3c(c21)OCO3 | 5.08
CCO[C@@H]1O[C@@H]([C@@H]2c3cc(OC)c(OC)cc3CCN2C)c2ccc3c(c21)OCO3 | 4.99
CO[C@@H]1O[C@@H]([C@@H]2c3cc4c(cc3CCN2C)OCO4)c2ccc3c(c21)OCO3 | 5.25
